Provide the recorded GI50 for the entries that follow.
# Test system: LOX IMVI
# protocol: NCI tumour cell line growth inhibition, 48 h
Activity calls are given as the source filed them. Cut-off read from the data, not from the text of the source: active = GI50 up to about 1.1 µM and inactive = higher.

Record excerpt, results attached:
CCCCCCCCCCCCCCCCCCNc1nc(=O)n(C2CC(O)C(COP(=O)(O)OCC3OC(n4ccc(N)nc4=O)C(O)C3O)O2)cc1F (centres undefined) ... 10.2 µM (inactive)
N#Cc1c([N+](=O)[O-])cc(C(F)(F)F)cc1[N+](=O)[O-] ... 2.64 µM (inactive)
O=C1C(=O)N(c2ccc(Cl)c(Cl)c2)C(=O)C(=O)C1c1nc2ccccc2s1 ... > 100 µM (inactive)

List the reported GI50 of each compound below.
1. N=S(c1ccccc1)c1ccccc1[N+](=O)[O-] (centres undefined)
2. COc1ccc(CC2C3=C(CCCC3)CCN2C)cc1 (centres undefined)
3. O=C(O)COc1c(Cl)cc(Cl)c(C(c2c(Cl)cc(Cl)c(OCC(=O)O)c2Cl)C(Cl)(Cl)Cl)c1Cl

["13.1 µM (inactive)", "> 100 µM (inactive)", "33.7 µM (inactive)"]

# per-item lookup of GI50; items listed below
1. CC(=O)n1nc(-c2nc3ccccc3nc2Cl)cc1Cl
2. CC(=O)O[C@H]1[C@H](O[C@H]2CC[C@]34C[C@]35CC[C@]3(C)[C@@H]([C@@]6(C)CC[C@@H](C(C)(C)O)O6)[C@@H](O)C[C@@]3(C)[C@@H]5C[C@H](O[C@@H]3O[C@H](CO)[C@@H](O)[C@H](O)[C@H]3O)[C@H]4C2(C)C)OC[C@@H](O)[C@@H]1O
3. CCC(=O)/C(=C\I)c1ccccc1

["5.47 µM (inactive)", "44 µM (inactive)", "1.27 µM (inactive)"]

From: ChEMBL document CHEMBL1201862
